pKi: −log10 of the molar value.
Recorded pKi for compounds tested on UniProt P47898, drawn from a number of studies.

Problem: Quick one: pKi for "COc1c(F)cccc1-c1csc2ccc(C(=O)N=C(N)N)cc12" ?
Result: 7.52 to 8.52

Problem: # get_value(readout='pKi', item= "NC(N)=NC(=O)c1ccc2cccc(-c3ncc(F)cc3F)c2c1" )
Result: 8.52 to 9.52

Problem: Suppose we examine the compound "NC(N)=NC(=O)c1ccc2cccc(-c3c(O)cccc3Cl)c2c1" ; what pKi value has been reported?
Result: 8.52 to 9.52

Problem: Fill in: pKi of "COc1ccccc1Cn1cc(-c2cc3ccccc3o2)nc1N" is ___
Result: > 6.22

Problem: Tell me the measured pKi of "NC(N)=NC(=O)c1ccc2c(c1)C(c1ccc(O)cc1)=CCC2" , please.
Result: 8.52 to 9.52

Problem: Recorded pKi of "Cc1ccc(NC(=N)NCc2ccccc2Cl)nc1" , please.
Result: > 6.52

Problem: Looking for the measured pKi of "N/C(=N\C(=O)c1ccc2c3ccccc3n(C3CCOCC3)c2c1)NCC1CC1" , can you help?
Result: ≥ 7.30

Problem: Name the recorded pKi for "COc1cccnc1-c1cccc2ccc(C(=O)N=C(N)N)cc12" .
Result: 6.52 to 7.52

Problem: What value of pKi has been recorded for this entry: "NC(N)=NC(=O)c1ccc2c(c1)C(c1c(F)ccc(F)c1F)=CCC2"
Result: 8.52 to 9.52

Problem: Fill blank: measured pKi of the compound "N#Cc1cc(F)ccc1C1=CCOc2ccc(C(=O)N=C(N)N)cc21" is ____.
Result: 7.52 to 8.52

Problem: Find the recorded pKi belonging to "COc1ccccc1Cc1cc2ncccc2nc1N" and report it.
Result: > 6.52

Problem: I am curious: what pKi value has been reported for "COc1cc(C#N)ccc1-c1cccc2ccc(C(=O)N=C(N)N)cc12" ?
Result: 8.52 to 9.52

Problem: What value of pKi has been recorded for this entry: "COc1cccc(F)c1Cc1cc2ccc(F)cc2nc1N"
Result: > 6.52

Problem: Need pKi of "NC(N)=NC(=O)c1ccc2cccc(-c3cccc4cccnc34)c2c1" , thanks.
Result: 7.52 to 8.52

Problem: Name the recorded pKi for "N#Cc1cc(Cl)ccc1C1=CCCc2ccc(C(=O)N=C(N)N)cc21" .
Result: 6.52 to 7.52

Problem: Find the recorded pKi belonging to "NC(N)=NC(=O)c1ccc2cccc(-c3ncc(C(F)(F)F)cc3Cl)c2c1" and report it.
Result: 7.52 to 8.52

Problem: What measured pKi goes with "NC(N)=NC(=O)c1ccc2cccc(-c3cc(Cl)cnc3F)c2c1" ?
Result: 7.52 to 8.52

Problem: Report pKi for "NC(N)=NC(=O)c1ccc2c(c1)C(c1ccc(Cl)cc1F)=CCO2" please.
Result: 8.52 to 9.52

Problem: Can you look up the measured pKi of "CCOc1cccc(OC)c1Cc1cc2ccccc2nc1N" for me?
Result: > 6.52

----------
pKi: −log10 of the molar value.
The molecules below each have a reported pKi tested on 5-hydroxytryptamine receptor 5A (Homo sapiens, UniProt P47898); the values come from various publications.

Problem: Record "NC(N)=NC(=O)c1ccc2c(c1)C(c1c(F)cc(F)cc1F)=CC1(CCCC1)O2" : what is its pKi with 5-hydroxytryptamine receptor 5A (Homo sapiens, UniProt P47898)?
Result: 7.52 to 8.52

Problem: Quick check: pKi on 5-hydroxytryptamine receptor 5A (Homo sapiens, UniProt P47898), item "COc1ccccc1Cc1cc2ccc(Cl)cc2nc1N" ?
Result: > 6.52

Problem: Quick check: pKi on 5-hydroxytryptamine receptor 5A (Homo sapiens, UniProt P47898), item "NC(N)=NC(=O)c1ccc2cccc(-c3c(F)cc(Cl)cc3F)c2c1" ?
Result: 8.52 to 9.52

Problem: Give the reported pKi for "COc1cccc(OC)c1CNC(=N)Nc1nc(CNC(=O)c2ccccc2)cs1" (system: 5-hydroxytryptamine receptor 5A (Homo sapiens, UniProt P47898)).
Result: > 7.30

Problem: Notebook: pull reported pKi for 5-hydroxytryptamine receptor 5A (Homo sapiens, UniProt P47898), entry "COc1cc(F)c(-c2cccc3ccc(C(=O)N=C(N)N)cc23)c(F)c1"
Result: 8.52 to 9.52

Problem: Request body: readout pKi, system 5-hydroxytryptamine receptor 5A (Homo sapiens, UniProt P47898), query "NC(N)=NC(=O)c1ccc2c(c1)C(c1nccs1)=CCC2" . Return the value.
Result: 6.52 to 7.52

Problem: Please provide the recorded pKi for "COc1ccccc1Cn1cc(-c2ccc(F)cc2)nc1N" , tested on 5-hydroxytryptamine receptor 5A (Homo sapiens, UniProt P47898).
Result: > 6.22

Problem: Query for 5-hydroxytryptamine receptor 5A (Homo sapiens, UniProt P47898): what pKi does the record show for "CC(C)Oc1ccccc1CNC(=N)Nc1cccc(Br)n1" ?
Result: > 7.00

Problem: Record "CCOc1ccccc1Cc1cc2cc(N3CCOCC3)ccc2nc1N" : what is its pKi with 5-hydroxytryptamine receptor 5A (Homo sapiens, UniProt P47898)?
Result: > 6.52
